Source of measurements: the supplement of paper PMC10567573

B1: KIAA0774 (parent)
chain: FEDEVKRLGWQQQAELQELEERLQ

Variants of: B1
assayExplanation: protein stability index of a GFP-peptide fusion (GPS, HEK-293T) (PSI 1-6); higher = more stable;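 note: lentivirally expressed fusions sorted by FACS into six bins by GFP to DsRed ratio, PSI derived from sequencing read proportions per bin multiplied by bin number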
particulars: c terminus: a fixed tail appended
quantityMeasured: protein stability index
Give bare numbers.

[
  {
    "mutationString": "E18M",
    "quantityMeasured": "protein stability index",
    "dataValue": 2.89
  },
  {
    "mutationString": "E15F",
    "quantityMeasured": "protein stability index",
    "dataValue": 2.42
  },
  {
    "mutationString": "W10V",
    "quantityMeasured": "protein stability index",
    "dataValue": 4.69
  }
]

I have 2 variants here; please give me protein stability index for each one.
1. R22N
2. L19P

Output line:
[5.69, 5.42]

I have 8 variants here; please give me protein stability index for each one.
1. W10Q
2. Q17E
3. L23K
4. R7K
5. Q24E
6. L16R
7. Q24P
8. A14R

Output line:
[5.71, 3.12, 4.16, 3.32, 3.8, 4.04, 4.96, 4.7]
